Experiment: Plasma and brain unbound concentrations by LC/MS/MS
Details: rat, plasma, intraperitoneal, 10 mg/kg, [Plasma]unbound, esreboxetine 10 mg/kg, − fluoxetine − morphine; 75 min post-dosing
attribute_measured: concentration at 75 min (ng/mL)
Numbers only here, please. The scale is ng/mL.

Look at this compound and give its reported concentration at 75 min. `CCOc1ccccc1O[C@@H](c1ccccc1)[C@@H]1CNCCO1`
33.4

---

Experiment: Plasma and brain unbound concentrations by LC/MS/MS
Conditions: rat, plasma, intraperitoneal, [Plasma]unbound, duloxetine 5 mg/kg + ondansetron 3 + morphine 1 mg/kg; 75 min post-dosing
attribute_measured: concentration at 75 min (ng/mL)
Numbers only here, please. The scale is ng/mL.

Look at this molecule and give its reported concentration at 75 min. `CNCC[C@H](Oc1cccc2ccccc12)c1cccs1`
4.55

---

Test: Plasma and brain unbound concentrations by LC/MS/MS
Conditions: rat, plasma, intraperitoneal, [Plasma]unbound, esreboxetine 10 mg/kg + fluoxetine 1 + morphine 1 mg/kg; 75 min post-dosing
attribute_measured: concentration at 75 min (ng/mL)
Numbers only here, please. The scale is ng/mL.

Look at this compound and give its reported concentration at 75 min. `CCOc1ccccc1O[C@@H](c1ccccc1)[C@@H]1CNCCO1`
31.2

---

Assay: Plasma and brain unbound concentrations by LC/MS/MS
Details: rat, brain, intraperitoneal, 10 mg/kg, [Brain]unbound, esreboxetine 10 mg/kg, − fluoxetine − morphine; 75 min post-dosing
attribute_measured: concentration at 75 min
Answer by giving the amount and then stating its unit.

Look at this compound and give its reported concentration at 75 min. CCOc1ccccc1O[C@@H](c1ccccc1)[C@@H]1CNCCO1 [esreboxetine]
20.4 ng/g

---

Assay: Plasma and brain unbound concentrations by LC/MS/MS
Conditions: rat, plasma, intraperitoneal, [Plasma]unbound, esreboxetine 10 mg/kg + morphine 1 mg/kg; 75 min post-dosing
attribute_measured: concentration at 75 min

Look at this molecule and give its reported concentration at 75 min. `CCOc1ccccc1O[C@@H](c1ccccc1)[C@@H]1CNCCO1`
21 ng/mL

---

Test: Plasma and brain unbound concentrations by LC/MS/MS
Settings: rat, in vivo, [Brain]unbound, atomoxetine 10 mg/kg + morphine 3 mg/kg; 75 min post-dosing
attribute_measured: concentration at 75 min (ng/g)
Numbers only here, please. The scale is ng/g.

Look at this molecule and give its reported concentration at 75 min. `CNCC[C@@H](Oc1ccccc1C)c1ccccc1`
52.6

---

Assay: Plasma and brain unbound concentrations by LC/MS/MS
Conditions: rat, in vivo, [Plasma]unbound, atomoxetine 10 mg/kg + morphine 3 mg/kg; 75 min post-dosing
attribute_measured: concentration at 75 min (ng/mL)
Numbers only here, please. The scale is ng/mL.

Look at this compound and give its reported concentration at 75 min. CNCC[C@@H](Oc1ccccc1C)c1ccccc1 [atomoxetine]
57.9

---

Assay: Binding in rat brain homogenates, equilibrium dialysis
Format: in vitro ADME
Details: brain homogenate, equilibrium dialysis 5 hours 37°C, Theravance, Inc., unpublished data
attribute_measured: fraction unbound at 5 h, 5 µM

Example compounds with recorded fraction unbound at 5 h, 5 µM:
[[record]]
compound = "CNCCC(Oc1ccc(C(F)(F)F)cc1)c1ccccc1 (stereo not drawn)"
reported = 0.0045

[[record]]
compound = "CNCC[C@@H](Oc1ccccc1C)c1ccccc1"
reported = 0.021


Okay, next one:
Look at this compound and give its reported fraction unbound at 5 h, 5 µM. `CNCC[C@H](Oc1cccc2ccccc12)c1cccs1`
0.007
